experiment: in vitro; type: cell-based, human; conditions: human, dermal fibroblasts, IC50 16 h (cytotoxicity), 16 h incubation, MTT
Counter-ions that a name gives are not always drawn.
Exercise: for every item that follows, state its recorded CC50 at 16 h.
Answers are plain numbers, in µM.

Example entries and their recorded answers appear below.
COMPOUND: CN(C)CCCC(=O)O[C@H]1CC[C@H]2[C@@H]3CCC4=CC(=O)CC[C@]4(C)[C@H]3CC[C@]12C [Code 3.1, hydrochloride salt]
VALUE UNITS: µM
CC50 at 16 h: 145

COMPOUND: CCOC(=O)C[C@H](C[N+](C)(C)C)OC(=O)O[C@H]1CC[C@H]2[C@@H]3CCC4=CC(=O)CC[C@]4(C)[C@H]3CC[C@]12C
VALUE UNITS: µM
CC50 at 16 h: 849

COMPOUND: C[n+]1cccc(C(=O)O[C@H]2CC[C@H]3[C@@H]4CCC5=CC(=O)CC[C@]5(C)[C@H]4CC[C@]23C)c1
VALUE UNITS: µM
CC50 at 16 h: 492

COMPOUND: CC(=O)O[C@@H]1C[C@@H](C(=O)O[C@H]2CC[C@H]3[C@@H]4CCC5=CC(=O)CC[C@]5(C)[C@H]4CC[C@]23C)[N+](C)(C)C1
VALUE UNITS: µM
CC50 at 16 h: 271

COMPOUND: C[n+]1ccccc1C(=O)O[C@H]1CC[C@H]2[C@@H]3CCC4=CC(=O)CC[C@]4(C)[C@H]3CC[C@]12C
VALUE UNITS: µM
CC50 at 16 h: 41.1

Return reported CC50 at 16 h values for all items listed beneath this line.
1. C[C@]12CC[C@H]3[C@@H](CCC4=CC(=O)CC[C@@]43C)[C@@H]1CC[C@@H]2OC(=O)OCOC(=O)CCCCC[N+](C)(C)C
2. COC(=O)[C@H](COC(=O)O[C@H]1CC[C@H]2[C@@H]3CCC4=CC(=O)CC[C@]4(C)[C@H]3CC[C@]12C)N(C)C [Code 3.6, hydrochloride salt]
3. C[C@]12CC[C@H]3[C@@H](CCC4=CC(=O)CC[C@@]43C)[C@@H]1CC[C@@H]2OC(=O)CCC[N+](C)(C)C
4. C[C@]12CC[C@H]3[C@@H](CCC4=CC(=O)CC[C@@]43C)[C@@H]1CC[C@@H]2OC(=O)C=CC[N+](C)(C)C
5. C[C@]12CC[C@H]3[C@@H](CCC4=CC(=O)CC[C@@]43C)[C@@H]1CC[C@@H]2OC(=O)[C@@H]1CCC[N+]1(C)C
6. C[C@]12CC[C@H]3[C@@H](CCC4=CC(=O)CC[C@@]43C)[C@@H]1CC[C@@H]2OC(=O)OCC[N+](C)(C)C

**A:**
1: 406; 2: 157; 3: 172; 4: 583; 5: 750; 6: 929
